B1: Azoarcus group I ribozyme (parent)
chain: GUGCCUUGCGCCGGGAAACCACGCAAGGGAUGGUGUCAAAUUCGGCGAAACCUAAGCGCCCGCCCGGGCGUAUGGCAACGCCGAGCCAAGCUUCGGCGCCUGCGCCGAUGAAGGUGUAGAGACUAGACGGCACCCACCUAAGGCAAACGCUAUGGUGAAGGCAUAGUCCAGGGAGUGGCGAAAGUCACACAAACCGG

# Variants of: B1
# Protocol: reverse-splicing fitness (ratio to wild type); higher = more active; in vitro selection; Mg2+ level not given

Alteration | reverse-splicing fitness
C82A A111U A145C C169G U176A | 0.0281
C82A A120U A145C C150A C169U U176C | 0.00188
C82A A111G A120G A145G C150G U176A | 0.00684
A120U A145G C150G C169G | 0.0353
C82U A120G A145C C169G U176A | 0.0276
A145U C169U U176G | 0.013
C82G A111C A120U A145U C150U C169G U176G | 0.00273
C82G A145U C169U U176C | 0.0136
C82A A111U A120G A145U C150A C169U | 0.0069
C82G A111U A120U C169A U176A | 0.00362
C82G A111U A120G A145C C150U C169G U176A | 0.023
A111G A120C C150U | 0.528
C82G A111C A120G A145G C150A C169G U176G | 0.0058
C82U A111G A120C C169U U176G | 0.00349
A111G A120C A145U C150A C169A U176G | 0.00401
A111U A120U C169U U176A | 0.0126
C82G A120C A145C C150G C169U U176C | 0.0116
A111C A120G A145U C169G U176G | 0.00448
C82A C150A U176G | 0.021
C82G A111C A120G A145C C169A U176A | 0.0138
A111G A120G C150U C169U | 0.142
C82U A111C A120U A145G C150U C169U U176C | 0.00415
